Target: polyclonal IgG (Gammanorm, Octapharma, Sweden)
Assay: SPR (Biacore 8K+), variant amine-coupled to CM5, Gammanorm as analyte, steady state fit
pKd: −log10 of the molar value.
EXPERIMENTAL ENDPOINT: pKd

{"columns": ["BINDER", "EXPERIMENTAL ENDPOINT", "MEAS VALUE"],
 "data": [
  ["pAM180 (B5 domain of Protein L; pos 10 N, pos 45 H, pos 60 N) (protein) KEQVTIKENIYFEDGTVQTATFKGTFAEATAEAYRYADLLSKEHGKYTADLEDGGYTINIRFAGKEEPEE", "pKd", 7.68],
  ["pAM146 (C1 domain of Protein L; pos 10 N, pos 45 N, pos 60 N) (protein) PEEEVTIKANLIFADGSTQNAEFKGTFAKAVSDAYAYADALKKDNGEYTVDVADKGLTLNIKFAGKKEKPEE", "pKd", 7.21],
  ["pAM134 (B3 domain of Protein L; pos 10 Y, pos 45 H, pos 60 N) (designed binder) PKEEVTIKAYLIYADGKTQTAEFKGTFEEATAEAYRYADLLAKEHGKYTVDVADKGYTLNIKFAGKEKTPEE", "pKd", 7.26],
  ["pAM115 (B3 domain of Protein L; pos 10 N, pos 45 A, pos 60 N) (designed binder) PKEEVTIKANLIYADGKTQTAEFKGTFEEATAEAYRYADLLAKEAGKYTVDVADKGYTLNIKFAGKEKTPEE", "pKd", 7.29],
  ["pAM131 (B3 domain of Protein L; pos 10 Q, pos 45 H, pos 60 Y) (designed binder) PKEEVTIKAQLIYADGKTQTAEFKGTFEEATAEAYRYADLLAKEHGKYTVDVADKGYTLYIKFAGKEKTPEE", "pKd", 7.09]
]}
